- assayTarget: Alpha-bungarotoxin (Bungarus multicinctus)
- assayInfo: alpha-bungarotoxin binders on microarray, profiling panel, artefact control for SMM control protein annotation, biochemical, small-molecule microarray, Alexa647 label, 635/667 nm fluorescence (AID 1117)
- details: alpha-BTX-A647 binding fluorescence, higher = more signal
Cut-off 0.1 on composite z-score, inclusive. At or above means Satisfied; below means Not satisfied.

Tell me whether composite z-score is at least 0.1 here: "COc1ccc([Si](C)(C)[C@H]2[C@H](CCO)O[C@@]3(C(=O)N(Cc4ccc(N(C=O)c5ccccc5)cc4)c4ccccc43)[C@@H]2C)cc1"
Satisfied

Could you tell me if the measured composite z-score of "[N-]=[N+]=NCc1ccccc1C[C@]1(C(=O)N2CCCCC2)N=C(c2ccc(OCCCO)cc2)O[C@H]1c1ccccc1N=[N+]=[N-]" reaches 0.1 or more?
Satisfied

Decide: composite z-score of "CC(C)C[C@@H]1NC(=O)[C@@H]2C[C@H](C(=O)NCc3ccc(F)cc3)[C@H](c3cccc(OCCO)c3)N2C1=O" >= 0.1?
Not satisfied

Please tell me: is the compound "COc1ccc(CCNC(=O)[C@@]2(Sc3ccc(C)cc3)CC(=O)N(C3Cc4ccccc4C3)[C@@H]2c2ccc(CO)cc2I)cc1" at or over 0.1 in terms of composite z-score?
Satisfied

Please check the record "COC(=O)[C@@]1(Cc2ccc(OC)cc2)[C@@H]2C(=CC(=O)[C@H]2CC(=O)C(=O)N2CCCC2)CN1C(=O)c1ccccc1" and state if its composite z-score is at or above 0.1.
Satisfied

Item "C=CCNC(=O)[C@@H]1[C@H]2C(=O)O[C@H](c3ccccc3)[C@H](c3ccccc3)N2[C@H](c2ccc(OCCO)cc2)[C@@]12C(=O)Nc1ccc(C#CCC(C(=O)OC)C(=O)OC)cc12" with composite z-score of 0.1 or above?
Satisfied
